Numbers sourced from PubChem BioAssay.

Test system: Noggin (protein binding on small-molecule microarray)
Test: Noggin binders on small-molecule microarray, primary screen, biochemical, 635/667 nm fluorescence (AID 1095);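 note: score merges 667 nm feature fluorescence with signal to noise over triplicate slides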
Details: 635 nm fluorescence, higher = more signal
Quick rule: composite z-score of at least 0.7 means fulfilled, below that means not fulfilled.

Solved entries (count: 3):
// inclusive: composite z-score at least 0.7? input: CCOC(=O)C[C@H]1[C@H](OC(=O)c2cc3ccccc3oc2=O)[C@@H](NC(=O)C2CCCCC2)c2cc(OCCCO)ccc2N1C(=O)c1ccccc1
fulfilled

Is the recorded value of composite z-score equal to or greater than 0.7 for this molecule? C=C(COC)/C(=C/C[C@@H](OC(C)=O)c1ccc(CO)o1)c1cnc2ccccc2c1
fulfilled

Is composite z-score for C=CCOC(=O)[C@H]1[C@@H]2C(=O)O[C@@H](c3ccccc3)[C@@H](c3ccccc3)N2[C@@H](c2ccc(OCCOC(=O)[C@H]3C[C@H]4C(=O)N5CCC[C@H]5C(=O)N4[C@H]3c3ccc(O)cc3)cc2)[C@]12C(=O)Nc1ccc(I)cc12 at or above 0.7?
fulfilled

***
Reported composite z-score reaches at least 0.7 for [N-]=[N+]=NCc1ccccc1C[C@]1(C(=O)O)N=C(c2ccc(OCCCO)cc2)O[C@H]1c1ccccc1N=[N+]=[N-] ?
not fulfilled

State whether the measured composite z-score reaches 0.7, counting equality as reaching it, for CCOC(=O)C1=CCC(c2ccc(C)cc2)N(S(=O)(=O)c2ccc(C)cc2)C1 (configuration not stated)
not fulfilled

Does composite z-score meet or surpass 0.7 for COCCCN1C(=O)[C@@]2(Cc3ccccc31)c1ccccc1C(=O)N(Cc1ccccc1C(F)(F)F)[C@H]2c1ccc(CO)cc1 ?
fulfilled

----------
Test: PSAC antagonists in infected red cells, primary screen, cell-based, P. falciparum Indochina, OD700, 1 h (AID 1154)
Settings: P. falciparum Indochina infected RBC osmotic lysis, higher = more signal, called active from +8 up or from −8 down
Entries annotated with measured z-score
Answer as a number with no unit attached.

Below: 6 molecules and their reported z-score.
Using the record for CO[C@H]1O[C@H](CO)[C@@H](OC(=O)Nc2ccc(Br)cc2)[C@H](OC(=O)c2cc3ccccc3[nH]2)[C@H]1OC(=O)c1cc2ccccc2[nH]1 , report its z-score.
1.39

Quick one: z-score for C=CCNC(=O)[C@H]1[C@@H]2C(=O)O[C@@H](c3ccccc3)[C@@H](c3ccccc3)N2[C@@H](c2ccc(O)cc2)[C@]12C(=O)N(C(=O)OCCOC)c1ccc(C#CCNC(N)=O)cc12 ?
1.78

Endpoint output: z-score of C[N+](C)(C)CCCCNC(=O)[C@H]1C[C@H]2C(=O)N[C@@H](Cc3ccccc3)C(=O)N2[C@H]1c1ccc(O)cc1 . Value?
0.891

Fill blank: measured z-score of the molecule CC(C)(C)OC(=O)CC[C@@]1(C(=O)NCCN2CCOCC2)N=C(c2ccc(OCCCO)cc2)O[C@@H]1c1ccccc1N=[N+]=[N-] is ____.
31.4

For the molecule O=C1NC(=O)C2C1C=CC(C(O)c1cccc3ccccc13)N2Nc1ccccn1 (centres undefined) , what z-score is on record?
1.06

Recorded z-score for Cc1ccc(S[C@]2(C(=O)NC(C)C)CC(=O)N(Cc3ccccc3Cl)[C@@H]2c2ccc(CO)cc2I)cc1 , please?
11.2

Continuing:
Given the entry CCCN1C(=O)[C@]2(CCS(=O)(=O)c3ccccc3)N=C(c3ccc(OCCCO)cc3)O[C@@H]2c2ccccc21 , report its measured z-score.
29.3

Please look up its z-score: CN1C(=O)[C@]2(Cc3ccccc3)N=C(c3ccc(OCCCO)cc3)O[C@@H]2c2ccccc21
33.7

Give the measured z-score of O=C1O[C@@H](c2ccccc2)[C@@H](c2ccccc2)N2[C@@H](c3ccc(OCCO)cc3)[C@]3(C(=O)Nc4ccccc43)[C@@H](C(=O)NC[C@H](O)c3ccccc3)[C@H]12 .
6.58

Record request: z-score value, item CCN(CC)c1ccc(N2CC=CC34O[C@@H]5/C=C\CCC(C)OC(=O)C5[C@H]3C(=O)N(C(CO)C(C)C)[C@@H]4C2=O)cc1 (some centres undefined)
1.82

Returns the measured z-score for the input molecule. Input: C=CCOC(=O)[C@H]1[C@@H]2C(=O)O[C@@H](c3ccccc3)[C@@H](c3ccccc3)N2[C@@H](c2ccc(OCCOC(=O)[C@@H]3C[C@@H]4C(=O)N[C@@H](CCCCN(C)C)C(=O)N4[C@@H]3c3ccc(O)cc3)cc2)[C@]12C(=O)Nc1ccc(I)cc12
-0.117

Recorded z-score for CCCC#C[Si](O[C@H](CC)c1cn([C@H](CO)Cc2ccccc2)nn1)(C(C)C)C(C)C , please?
0.442

Recorded z-score for COCCOC(=O)N1C(=O)[C@@]2(c3cc(C#Cc4ccc(OC)cc4)ccc31)[C@H](c1ccc(O)cc1)N1[C@H](c3ccccc3)[C@H](c3ccccc3)OC(=O)[C@H]1[C@@H]2C(=O)NC[C@H](O)c1ccccc1 , please?
3.44

Which measured z-score value corresponds to O=C1C2C=CC(C(O)c3c(F)cccc3Cl)N(Nc3ccccc3)C2C(=O)N1c1ccccc1 (centres undefined) ?
18.7

----------
Biological target: Carbonic anhydrase 2 (Homo sapiens)
Experiment: CAII small-molecule binders, profiling panel, biochemical, small-molecule microarray, Alexa647-labelled CAII (AID 1122)
Conditions: CAII-A647 binding fluorescence, higher = more signal
Returns one of True or False; True when composite z-score is >= 0.6.

Assess whether reported composite z-score for [N-]=[N+]=Nc1ccccc1C[C@@]1(C(=O)NCCN2CCOCC2)N=C(c2ccc(OCCCO)cc2)O[C@@H]1c1ccccc1 sits at 0.6 or higher.
False

Confirm if composite z-score reported for the compound CC(=O)n1cc(C(O)C2C=CC3C(=O)N(C)C(=O)C3N2Nc2ccccc2)c2ccccc21 (centres undefined) is 0.6 or above.
False

Quick check, composite z-score >= 0.6? COCCOC(=O)N1C(=O)[C@@]2(c3cc(C#CCNC(N)=O)ccc31)[C@H](C(=O)NC[C@H](O)c1ccccc1)[C@H]1C(=O)O[C@H](c3ccccc3)[C@H](c3ccccc3)N1[C@@H]2c1ccccc1OCCO
False

Please tell me: is the compound O=C1c2ccccc2[C@@]2(Cc3ccccc3N(CCN3CCOCC3)C2=O)[C@H](c2ccc(CO)cc2)N1Cc1ccccc1 at or over 0.6 in terms of composite z-score?
True

Given C=C(CCCC)C(=O)CC[C@H](OC(C)=O)c1cccc(OCCO)c1 , state whether its composite z-score is at least 0.6.
False

Evaluate COc1ccc(C(O)C2C=CC3C(=O)NC(=O)C3N2Nc2ccccn2)c2ccccc12 (centres undefined) : composite z-score at minimum 0.6?
True

---
Entry CC(C)(C)OC(=O)CC[C@]1(C(=O)NCC(O)CO)COC(c2ccc(OCCCO)cc2)=N1 (some centres undefined) : is its composite z-score no less than 0.6?
True

----------
Assay: splicing luciferase reporter signal modulators, primary screen, spliceosome inhibition project, cell-based, HEK293, splice +/- reporter (AID 1101);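 note: HEK293 cells carrying a splicing-competent luciferase reporter gene; test concentration not given here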
Conditions: luminescence, 24 h, higher = more signal, called active from +8 up or from −8 down
Observable: z-score
Please give only the number in your answer, with no unit.

Take a look at these entries with their results.
Endpoint output: z-score of O=C1NC(=O)C2C1C=CC(C(O)c1cccc3ccccc13)N2Nc1ccccn1 (stereo not drawn) . Value?
1.03

Quick one: z-score of O=C1[C@H]2C=C(Br)[C@H](C[C@@H]2OCCCCO)[C@@]12CO2 ?
-0.238

z-score lookup needed for O=C1C2C=CC(C(O)C3CCCCC3)N(Nc3ccc([N+](=O)[O-])cc3)C2C(=O)N1c1ccccc1 (stereo not drawn) , thanks.
-1.04

More entries:
Entry under review: O=C1O[C@H](c2ccccc2)[C@H](c2ccccc2)N2[C@H]1[C@@H](C(=O)O)[C@]1(C(=O)Nc3ccc(C#CCCO)cc31)[C@H]2c1ccc(O)cc1 . Reported z-score?
-0.765

Suppose we examine the compound C=CCC(OC(C)=O)[C@@H]1[C@@H](N(Cc2ccc(-c3ccccc3)cc2)C(=O)Cc2ccc(F)cc2)c2cc(OCCCO)ccc2N1C(=O)c1ccc(-c2ccccc2)cc1 (stereo partly drawn) ; what z-score value has been reported?
-2.23

----------
Test: CREB reporter modulators without forskolin, primary screen, cell-based, PC12, CRE-LacZ reporter, unstimulated (AID 1145)
Conditions: no forskolin, luminescence, 4.5 h, higher = more signal, called active from +8 up or from −8 down
Kind request: treat 0.02 as inclusive, so z-score at 0.02 or higher is Yes, anything lower is No.

Solved entries (count: 5):
Quick check: does COC(=O)c1c(CC[C@@H](CO)NC(=O)N[C@@H](C)Cn2cc(C3(O)CCCCC3)nn2)oc(C(C)=O)c1C(=O)OC have z-score greater than or equal to 0.02?
Yes

Is z-score for COc1ccc(C(O)C2C=CC3C(=O)N(C)C(=O)C3N2N2CCCCC2)c2ccccc12 (stereo not given) at or above 0.02?
Yes

Check if z-score >= 0.02 (inclusive). Item: C=CCC(OC(C)=O)[C@@H]1[C@@H](N(Cc2ccc(-c3cccc(C(F)(F)F)c3)o2)C(=O)c2ccc(-c3ccccc3)cc2)c2cc(OCCCO)ccc2N1C(=O)c1ccc(-c2ccccc2)cc1 (stereo not given in full)
No

Check this compound for z-score at or above 0.02: COc1ccc([Si](C)(C)[C@@H]2[C@@H](CC(=O)N3Cc4ccccc4C[C@H]3CO)O[C@]3(C(=O)N(C)c4c(Br)cc(C)cc43)[C@H]2C)cc1
Yes

Has CCCC[C@@H]1C[C@H]1[C@@H](NC(=O)c1ccco1)c1ccc(C(=O)OC)cc1 a recorded z-score greater than or equal to 0.02?
No

More entries:
Quick check: does O=C(NCc1ccccc1)[C@@H]1c2ccccc2C(=O)N(CC23CC4CC(CC(C4)C2)C3)[C@H]1c1ccc(CO)cc1 have z-score greater than or equal to 0.02?
No

Entry COc1ccc(CCN2C(=O)[C@@]3(c4ccc([N+](=O)[O-])cc4)CC(=O)N(C4CCCCC4)[C@@H]3c3ccc(CO)cc32)cc1 : is its z-score no less than 0.02?
No

Threshold query (z-score >= 0.02) on O=C(C1N=C(c2ccc(OCCCO)cc2)N(c2ccccc2)O1)N1CCOCC1 (stereo not given)
Yes

Given the entry COCC(=C=CC[C@H](O)c1ccccc1OCCO)C[C@H](O)c1cc(Cl)cc(Cl)c1O , answer whether its z-score meets or surpasses 0.02.
Yes
